The reported numbers originate from patent US12435051B2.

Biological target: human 5-HT2AR (Homo sapiens, UniProt P28223)
Sequence (P28223 whole entry): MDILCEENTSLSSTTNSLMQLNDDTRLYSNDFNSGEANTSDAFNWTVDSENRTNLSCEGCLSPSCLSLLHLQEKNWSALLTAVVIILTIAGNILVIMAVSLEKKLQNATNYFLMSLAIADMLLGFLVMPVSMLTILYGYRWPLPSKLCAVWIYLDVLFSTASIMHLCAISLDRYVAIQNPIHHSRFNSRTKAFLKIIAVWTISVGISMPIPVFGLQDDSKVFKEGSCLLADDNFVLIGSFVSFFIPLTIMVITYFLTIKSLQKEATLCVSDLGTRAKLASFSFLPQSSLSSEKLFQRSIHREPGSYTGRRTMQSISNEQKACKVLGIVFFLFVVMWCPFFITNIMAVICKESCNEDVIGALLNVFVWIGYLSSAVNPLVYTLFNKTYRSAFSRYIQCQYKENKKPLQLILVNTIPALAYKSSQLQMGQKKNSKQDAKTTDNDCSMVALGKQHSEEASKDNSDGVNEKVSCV
Experiment: HTRF-based IP1 accumulation assay (5-HT2AR antagonistic effect)
Details: HEK293 cells overexpressing human 5-HT2AR; serotonin at EC80
REPORTED METRIC: IC50

Examples with answers:
MOLECULE: O=C(NCC1(F)COC1)c1ccc(C#Cc2ccccc2F)cc1
IC50: 1 to 2 µM

MOLECULE: CC(NC(=O)c1ccc(C#Cc2ccccc2F)cc1)C1CCOCC1 (stereo not shown)
IC50: 0.1 to 0.5 µM

MOLECULE: O=C(NCC1(N2CCOCC2)CCC1)c1ccc(C#Cc2ccccc2F)cc1
IC50: 0.5 to 1 µM

Quick batch: IC50 for everything below.
1. O=C(NCC1CCCC(O)C1)c1ccc(C#Cc2ccccc2F)cc1 (stereo not shown)
2. O=C(NC[C@H]1CCCO1)c1ccc(C#Cc2ccc(F)cc2)cc1
3. O=C(NCC1(NC2CC2)CCC1)c1ccc(C#Cc2ccccn2)cc1
4. O=C(NC[C@H]1CCCO1)c1ccc(C#Cc2ccc(F)cc2F)cc1

Result:
["0.5 to 1 µM", "0.1 to 0.5 µM", "1 to 2 µM", "< 0.1 µM"]

Quick batch: IC50 for everything below.
1. O=C(NC[C@H]1CCOC1)c1ccc(C#Cc2ccc(F)cc2F)cc1
2. CNC(=O)C1(CNC(=O)c2ccc(C#Cc3ccccc3F)cc2)CCOCC1
3. O=C(NC[C@@H]1CCCO1)c1ccc(C#Cc2ccccc2F)cc1

Result:
["0.1 to 0.5 µM", "1 to 2 µM", "0.1 to 0.5 µM"]

Quick batch: IC50 for everything below.
1. O=C(NCC1(CO)CCCCC1)c1ccc(C#Cc2ccccc2F)cc1
2. O=C(NCC1CCO1)c1ccc(C#Cc2ccc(F)cc2F)cc1 (stereo not shown)
3. O=C(NC[C@@H]1CCOC1)c1ccc(C#Cc2ccccc2F)cc1
4. O=C(NCC1(NC2CC2)CCCCCC1)c1ccc(C#Cc2ccccc2F)cc1
5. O=C(NCC1(NC2CC2)CCCC1)c1ccc(C#Cc2ccc(F)c(F)c2)cc1

Result:
1: 0.1 to 0.5 µM; 2: < 0.1 µM; 3: 0.1 to 0.5 µM; 4: 0.1 to 0.5 µM; 5: 0.1 to 0.5 µM

Quick batch: IC50 for everything below.
1. CC(C)NC1(CNC(=O)c2ccc(C#Cc3ccccc3F)cc2)CCOCC1
2. O=C(NC[C@@H]1CCOC1)c1ccc(C#Cc2ccc(F)cc2F)cc1
3. O=C(NCC1(F)CCCCC1)c1ccc(C#Cc2ccc(F)cc2F)cc1
4. O=C(NCC1(NC2CC2)CCCCCC1)c1ccc(C#Cc2ccncc2F)cc1
5. CC1(CNC(=O)c2ccc(C#Cc3ccc(F)cc3)cc2)CCCO1 (stereo not shown)
6. C[C@]1(O)C[C@@H](CNC(=O)c2ccc(C#Cc3ccccc3F)cc2)C1
7. CC1(CNC(=O)c2ccc(C#Cc3ccccc3F)c(F)c2)COC1

Result:
0.1 to 0.5 µM
< 0.1 µM
1 to 2 µM
0.1 to 0.5 µM
< 0.1 µM
0.1 to 0.5 µM
1 to 2 µM

Quick batch: IC50 for everything below.
1. CCC1(CNC(=O)c2ccc(C#Cc3ccccc3F)cc2)COC1
2. O=C(NCC1CCOC1)c1ccc(C#Cc2ccccc2F)cc1 (stereo not shown)
3. O=C(NC[C@@H]1CCCOC1)c1ccc(C#Cc2ccc(F)cc2)cc1

Result:
1: 0.1 to 0.5 µM; 2: 0.1 to 0.5 µM; 3: 0.5 to 1 µM
